Catalogue of LC50 values
# Test system: Artemia
# assay_info: Toxicity to brine shrimp
# Format: organism-based
# condition_parameters: in vivo
Express the result in ppm but write the number alone.

Known results for molecules:
[[record]]
molecule = "CCCCCCCCCCCC[C@H](O)[C@@H](O)CC[C@H](O)[C@@H]1CC[C@@H](C[C@H](O)CCCCC[C@@H](O)CC2=C[C@H](C)OC2=O)O1 [ANNOPENTOCIN B]"
property_name = "LC50"
quantitative_result = 11.2

[[record]]
molecule = "CCCCCCCCCCCC[C@H](O)[C@H](O)CC[C@H](O)[C@@H]1CC[C@@H](C[C@H](O)CCCCC[C@@H](O)CC2=C[C@H](C)OC2=O)O1 [ANNOPENTOCIN C]"
property_name = "LC50"
quantitative_result = 13.8


Lab note: next molecule to report on.
Which LC50 is listed for CCCCCCCCCCCC[C@@H](O)[C@H](O)CC[C@H](O)[C@@H]1CC[C@@H](C[C@H](O)CCCCC[C@@H](O)CC2=C[C@H](C)OC2=O)O1 [ANNOPENTOCIN A] ? 8.9
